Hi there, I'd appreciate the recorded inhibition for every entry that follows.
- study system: Serine/threonine-protein kinase BRSK2 (Homo sapiens);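 note: mean kinase inhibition reported within the GSK PKIS dataset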
- Sequence (whole entry): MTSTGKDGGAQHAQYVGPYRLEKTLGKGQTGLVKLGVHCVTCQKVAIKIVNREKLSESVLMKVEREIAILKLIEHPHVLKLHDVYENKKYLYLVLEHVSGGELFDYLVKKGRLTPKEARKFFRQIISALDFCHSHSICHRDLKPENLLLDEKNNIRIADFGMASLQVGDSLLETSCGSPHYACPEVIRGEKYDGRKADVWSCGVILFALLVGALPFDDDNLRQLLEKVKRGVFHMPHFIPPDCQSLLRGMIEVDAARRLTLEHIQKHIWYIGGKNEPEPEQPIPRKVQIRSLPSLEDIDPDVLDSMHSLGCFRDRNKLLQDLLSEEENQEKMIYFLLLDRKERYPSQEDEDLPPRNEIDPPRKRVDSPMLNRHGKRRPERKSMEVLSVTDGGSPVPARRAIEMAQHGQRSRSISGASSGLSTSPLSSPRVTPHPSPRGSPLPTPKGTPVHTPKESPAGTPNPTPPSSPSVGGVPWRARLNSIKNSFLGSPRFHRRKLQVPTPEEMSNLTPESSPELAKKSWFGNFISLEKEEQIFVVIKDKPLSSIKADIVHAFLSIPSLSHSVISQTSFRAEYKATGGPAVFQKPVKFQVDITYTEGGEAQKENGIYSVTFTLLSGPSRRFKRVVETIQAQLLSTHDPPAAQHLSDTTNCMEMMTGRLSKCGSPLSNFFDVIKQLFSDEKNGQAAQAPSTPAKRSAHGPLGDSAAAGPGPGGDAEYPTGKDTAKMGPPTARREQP
- applied conditions: at 1 µM
Answers are plain numbers, in %.

Take a look at these entries with their results.
* NS(=O)(=O)c1ccc(N/N=C2\C(=O)Nc3ccc(C(=O)NCCc4c[nH]cn4)cc32)cc1 | 74.9
* CC1=C(C(=O)Nc2ccc3[nH]ncc3c2)C(c2ccc(F)cc2)NC(=O)N1 (stereo unspecified) | 15.5

For every item in the list below, what is its measured inhibition?
1. CCn1c(-c2nonc2N)nc2ccncc21
2. COc1ccc2cc(-c3c(-c4ccncc4)nc(-c4ccc([S+](C)[O-])cc4)n3C)ccc2c1 (stereo unspecified)
3. CC1=C(C(=O)Nc2ccc3[nH]ncc3c2)C(c2ccc3ccccc3c2)CC(=O)N1 (stereo unspecified)
4. Cc1cc(O)cc(C)c1/C=C/c1cncc(-c2nn[nH]n2)c1
5. COc1cc(C=NNc2ncnc3c2cnn3-c2ccccc2)ccc1O
6. O=C1NC(=O)C(c2cccc(Cl)c2)=C1Nc1ccc(O)c(Cl)c1
7. CCN1CCC(CC(=O)Nc2n[nH]c3nc(-c4cccs4)c(Br)cc23)CC1

1: 0.91; 2: 0.66; 3: 31.3; 4: 13.2; 5: 43.5; 6: 19; 7: 18.5

Provide inhibition values for the following items, in order.
1. Cc1cccc(-c2n[nH]cc2-c2ccc3ncccc3n2)n1
2. NC(=O)c1ccc(-c2nc(-c3ccccn3)c(-c3ccc4c(c3)OCO4)[nH]2)cc1
3. NC(=O)c1cccc(Nc2nccc(Nc3cccc4[nH]ncc34)n2)c1

1: 2.14; 2: 1.06; 3: 19.3

Parameter requested: inhibition. Apply to each item below.
1. Cc1ccc(NC(=O)c2ccnc(N3CCCC3)c2)cc1-c1ccc(C(=O)NCC2CC2)cc1
2. O=C(Nc1n[nH]c2nc(-c3ccco3)c(Br)cc12)C1CC1
3. O=C1NC(=O)C(N2CCc3ccccc32)=C1c1ccc(Cl)cc1
4. COc1ccc(COc2ccc(Cc3cnc(N)nc3N)cc2OC)cc1
5. COC(=O)Nc1nc2cc(Oc3cccc(NC(=O)Nc4cc(C(F)(F)F)ccc4F)c3)ccc2[nH]1
6. Nc1nc(-c2ccc3c(c2)C(=Cc2cc(Br)c(O)c(Br)c2)C(=O)N3)cs1
7. NS(=O)(=O)c1cccc(-c2ccc3c(NC(=O)C4CC4)n[nH]c3c2)c1

1. 4.83
2. 11.5
3. 3.2
4. 2.49
5. 2.1
6. 8.7
7. 51.8

Would you mind listing inhibition for each of the following compounds?
1. CS(=O)(=O)CCN(CC#N)Cc1ccc(-c2ccc3ncnc(Nc4ccc(OCc5cccc(F)c5)c(Cl)c4)c3c2)o1
2. CCn1c(-c2nonc2N)nc2c(C#CC(C)(C)O)nc(CN3CCCC3)cc21

0.65
3.23

Record inhibition for all entries; do not skip any.
1. CCn1c(-c2nonc2N)nc2cnc(Oc3cccc(NC(=O)c4ccc(OCCN5CCOCC5)cc4)c3)cc21
2. Cc1nn(C)c2cc(N(C)c3ccnc(Nc4cccc(S(N)(=O)=O)c4)n3)ccc12
3. O=C1NC(=O)C(c2ccccc2Cl)=C1Nc1cccc(O)c1

[2.71, 4.4, 8.81]

For each listed entry, give its inhibition.
1. Cn1cc(C=C2C(=O)Nc3cccnc32)c2ccccc21
2. CCn1c(-c2nonc2N)nc2c(N3CCCC3)nccc21
3. COc1cc2ncn(-c3cc(OCc4ccccc4Cl)c(C(N)=O)s3)c2cc1OC
4. Nc1ncnc2occ(-c3ccc(NC(=O)Nc4cccc(C(F)(F)F)c4)cc3)c12
5. O=C1NC(=O)C(c2ccc(Cl)cc2)=C1Nc1ccc(Cl)c(C(=O)O)c1
6. CN1CCC(C(=O)Nc2n[nH]c3nnc(-c4ccccc4)cc23)CC1
7. NCc1ccc(-c2nc(-c3ccc(Cl)c(O)c3)c(-c3ccncc3)[nH]2)cc1

1: 12.3; 2: 3.56; 3: 48.6; 4: 9.75; 5: -1.78; 6: 6.52; 7: 1.33

Please report inhibition for every entry that follows.
1. CS(=O)(=O)CCNCc1ccc(-c2ccc3ncnc(Nc4ccc(OCc5cccc(F)c5)c(C(F)(F)F)c4)c3c2)o1
2. CS(=O)(=O)Nc1ccc(N/C=C2\C(=O)Nc3ccccc32)cc1
3. Fc1cccc(COc2ccc(Nc3ncnc4sc(-c5cccs5)cc34)cc2Cl)c1
4. CCn1c(-c2nonc2N)nc2c(C#CC(C)(C)O)nc(OC[C@@H](N)c3ccccc3)cc21
5. CCn1c(-c2nonc2N)nc2cncc(C(=O)N3CC[C@H](N)C3)c21

[3.52, 30.6, 1.9, 5, 6.07]
